Hello, the source for this data is the supplement of paper PMC12667976, in case you need it.

Assign AIRE transcriptional activation functional score to each entry below.
B1: library; numbered along this chain (parent)
chain: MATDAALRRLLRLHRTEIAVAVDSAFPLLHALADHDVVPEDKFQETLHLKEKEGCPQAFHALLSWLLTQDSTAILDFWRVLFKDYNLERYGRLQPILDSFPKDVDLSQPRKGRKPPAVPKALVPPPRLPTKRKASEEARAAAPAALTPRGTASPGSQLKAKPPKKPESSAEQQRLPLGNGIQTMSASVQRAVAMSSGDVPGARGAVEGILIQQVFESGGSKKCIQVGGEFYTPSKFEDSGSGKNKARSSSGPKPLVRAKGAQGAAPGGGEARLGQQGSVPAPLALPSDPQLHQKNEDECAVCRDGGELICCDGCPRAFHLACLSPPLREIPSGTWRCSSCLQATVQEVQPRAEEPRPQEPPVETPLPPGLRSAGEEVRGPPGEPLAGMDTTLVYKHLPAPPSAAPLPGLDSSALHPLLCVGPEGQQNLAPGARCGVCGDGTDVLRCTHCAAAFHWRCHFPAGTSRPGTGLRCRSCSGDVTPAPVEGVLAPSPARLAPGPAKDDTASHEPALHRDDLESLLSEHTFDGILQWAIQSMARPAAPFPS

# Variants of: B1
# protocol: AIRE transcriptional activation functional score (insulin promoter-GFP; nonsense median 0, synonymous median 1) (normalised score); higher = higher AIRE activity (more reporter activation)
# stated.conditions: with insulin promoter-GFP reporter in HEK293
Numbers only.

Use these answered entries as a reference point.
variant.code	experimental.result
P460M	1.17
W531G	0.0105
D23G	0.031
P481I	0.238
G178I	1.74

Please give AIRE transcriptional activation functional score for each item listed below.
1. A493I
2. R316M
3. T46H
4. G467P
5. V301Y
6. Q290H

Ans.
1. 1.04
2. 1.04
3. 0.478
4. 1.04
5. 1.14
6. 0.981
